TEST_TARGET: Polyketide synthase Pks13 (Mycobacterium tuberculosis (strain ATCC 25618 / H37Rv))
PROTOCOL: Mycobacterium tuberculosis Polyketide synthase 13 Thioesterase (PKS13)
Type: functional
Parameters: scale not given: in the data most compounds retested in dose-response had high values
EXPERIMENTAL_SETUP: 30 µM
Among all 67,000 compounds or so, about 300 (0.45%) showed an effect of 50% or more. Shown is part of a subset that was picked to be rich in strong results.
Tag: 1 (yes) if measured Percent Effect is not below -10%, 0 (no) if it is.

COCCNC(=O)c1cn(C(C)(C)C)c2ncccc12    1 (yes)

stdin: # check: Percent Effect of Cc1cccc(-c2ccc(C(=O)NCC3CCOC3)c(=O)[nH]2)c1 (centres undefined) is greater than or equal to -10%
stdout: 1 (yes)

stdin: Would you say "CCN(Cc1nc2c(cnn2C)c(=O)[nH]1)c1cccc(F)c1" shows Percent Effect at minimum -10%?
stdout: 1 (yes)

stdin: Please indicate if the recorded Percent Effect for Cn1nc(C2CCCN(Cc3cccs3)C2)c2nccnc21 (centres undefined) meets or exceeds -10%.
stdout: 1 (yes)

stdin: Is it the case that Cn1nc(C2CCNC2)c2c(C(=O)NCC(F)(F)F)cc(C3CC3)nc21 (centres undefined) has Percent Effect reaching or exceeding -10%?
stdout: 1 (yes)

stdin: For this compound, is measured Percent Effect -10% or higher? "O=C(Nc1cccnc1)[C@@H]1C[C@H]2OCC[C@H]2N(Cc2nccs2)C1"
stdout: 0 (no)

stdin: Assess whether reported Percent Effect for "Cc1ccc(N2C[C@H]3CCC[C@@H](CN(C)C)[C@H]3C2)nn1" sits at -10% or higher.
stdout: 0 (no)

stdin: Reported Percent Effect at or above -10%? "CCc1n[nH]c(SCC(=O)N2C[C@@H]3CC[C@H](C2)N(CC=C(C)C)C3)n1"
stdout: 1 (yes)

stdin: Test whether the compound "CSCCCN1C[C@H]2CC[C@@H]1CN(Cc1[nH]cnc1C)C2" records Percent Effect of -10% or higher.
stdout: 0 (no)
